B1: TPR 5TU (parent)
chain: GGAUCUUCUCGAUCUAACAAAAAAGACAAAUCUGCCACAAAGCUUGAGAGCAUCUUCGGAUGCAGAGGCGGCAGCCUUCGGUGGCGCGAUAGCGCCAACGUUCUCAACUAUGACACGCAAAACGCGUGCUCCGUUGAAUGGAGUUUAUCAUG

Variants of: B1
ASSAY PROTOCOL: polymerase ribozyme fitness, log enrichment relative to wild type (log ratio); higher = more active; in vitro selection for triplet polymerase activity
Variants at the floor of the assay were thinned out.
Label scheme for polymerase ribozyme fitness (log ratio): low-valued = under -3, mid-valued = from -3 up to -0.8, high-valued = -0.8 and over

| VARIANT NAME | QUALITATIVE LABEL |
| --- | --- |
| C32G U55A G58A G68A C85U G88C C93A A106G C116A U135A | low-valued |
| U55A G141A | high-valued |
| C5U | high-valued |
| U53G C87U A113U C116A G140U | low-valued |
| C8G U44A A52C C75A A91G U148G | low-valued |
| A29U A49G C54G G59U A91U C96A G117U A142U | low-valued |
| A41C C75U C87A U148A | low-valued |
| A47C G74U A107G A122U | low-valued |
| C32A A40C G84A | low-valued |
| G59A C87U A121U | mid-valued |
| G42U U44A C54A G88U | low-valued |
| C93A A106C A120U | mid-valued |
| A21G A60G G68U C93G C95G U139C | low-valued |
| A40U C51U G83C | mid-valued |
| U56A A60G | high-valued |
| A20U G50A A89U A91G | low-valued |
| A12G G80A C118U A119C A120G G143U | low-valued |
| U6A A22U G59U A73U U109G | low-valued |
| A19U G59C A89U G92C A121G | mid-valued |
| G46C C54U A66G G94A C95A G143A | low-valued |
| G48A C57A U127A A142G G143A | low-valued |
| C38U C57A C63U C95U A98U C99G | mid-valued |
| A17C G92C | high-valued |
| U104A | high-valued |
| C36U C54A G65C G67U G68U C95G A110C A113U C116U G143C C149A | low-valued |
| C51U C93U | mid-valued |
| C43U C103G | low-valued |
| C131G G136U G141U G143U | low-valued |
| A52G C54A | mid-valued |
| C95U C131G | low-valued |
| C75U A122U | high-valued |
| U45A G58A | mid-valued |
| A24G G42U C72A A91U G92A U102G G136U | low-valued |
| G67A | low-valued |
| C57U C93A G126C | high-valued |
| A24U G50A C108G C125A G141C | low-valued |
| A21C U53A G58A C95U U101G C116A | high-valued |
| U4C G74A | low-valued |
| U9C C38U A52U C75G G92U G94A G136U U144G | low-valued |
| G83A C87A | low-valued |
| A3U A22C U31C U61A | mid-valued |
| A49C A52C C96A U102G U127C U148A | low-valued |
| A120G G141C A147U | mid-valued |
